MEASURED ON: HCV NS5B (Hepatitis C virus genotype 1b)
Construct: The protein was expressed with an 18 amino acid C-terminal truncation to enhance the solubility
Sequence (Q9WMX2 2420-2992): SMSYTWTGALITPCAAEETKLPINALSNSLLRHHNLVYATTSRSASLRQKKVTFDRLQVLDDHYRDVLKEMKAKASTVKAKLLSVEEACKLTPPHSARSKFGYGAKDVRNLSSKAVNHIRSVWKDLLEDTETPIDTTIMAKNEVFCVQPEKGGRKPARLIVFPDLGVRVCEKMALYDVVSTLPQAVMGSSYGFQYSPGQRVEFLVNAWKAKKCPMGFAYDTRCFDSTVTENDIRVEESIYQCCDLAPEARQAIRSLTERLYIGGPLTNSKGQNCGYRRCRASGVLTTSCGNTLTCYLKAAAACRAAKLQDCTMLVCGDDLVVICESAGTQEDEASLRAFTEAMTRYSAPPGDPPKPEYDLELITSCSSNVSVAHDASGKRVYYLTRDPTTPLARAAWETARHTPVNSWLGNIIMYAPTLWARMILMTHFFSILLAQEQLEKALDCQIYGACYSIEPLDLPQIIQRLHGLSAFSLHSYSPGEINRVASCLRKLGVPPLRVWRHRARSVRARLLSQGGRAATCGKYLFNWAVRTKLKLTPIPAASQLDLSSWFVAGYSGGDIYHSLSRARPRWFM
TEST METHOD NOTES: HCV NS5B RdRp enzyme assay (preincubation protocol)
PROTOCOL CONDITIONS: HCV NS5B RdRp genotype 1b
pIC50: −log10 of the molar value.
Below, each entry is listed alongside its reported pIC50.

Look over these answered cases.
O=C(O)c1ccc2c(C3CCCCC3)c3n(c2c1)C=C(c1nnn(CC2CC2)n1)Cc1ccccc1-3; < 6.30
CCn1nnc(C2=Cn3c(c(C4CCCCC4)c4ccc(C(=O)O)cc43)-c3ccccc3C2)n1; 6.30 to 9.00
CS(=O)(=O)Cc1noc(C2=Cc3ccccc3-c3c(C4CCCCC4)c4ccc(C(=O)O)cc4n3C2)n1; 6.30 to 9.00

Challenge: Data request, read-out pIC50, for CN(C)S(=O)(=O)NC(=O)c1ccc2c(C3CCCCC3)c3n(c2c1)CC(c1nnn(CC2CCOCC2)n1)=Cc1ccccc1-3
Response given: 6.30 to 9.00

###

MEASURED ON: HCV NS5B (Hepatitis C virus genotype 1b)
Construct: The protein was expressed with an 18 amino acid C-terminal truncation to enhance the solubility; made in house; host or cells: E. coli BL21(DE3)
TEST METHOD NOTES: HCV NS5B RdRp enzyme assay (preincubation protocol)
Format: biochemical
PROTOCOL CONDITIONS: HCV NS5B RdRp genotype 1b
ASSAY READOUT: IC50

Known IC50 results, listed for orientation:
COc1ccc2c(c1)C=C(c1nnn(CC3CCOCC3)n1)Cn1c-2c(C2CCCCC2)c2ccc(C(=O)NS(=O)(=O)N(C)C)cc21 [Example 17]; 1 to 500 nM
COC(=O)c1ccc2c(C3CCCCC3)c3n(c2c1)CC(c1nc(C)no1)=Cc1ccccc1-3 [Example 23]; > 500 nM
COc1ccc2c(c1)C=C(c1ncco1)Cn1c-2c(C2CCCCC2)c2ccc(C(=O)O)cc21 [Example 56]; 1 to 500 nM
COC(=O)c1ccc2c(C3CCCCC3)c3n(c2c1)CC(c1nnc(CC2CCOCC2)o1)=Cc1ccccc1-3 [Example 39]; > 500 nM
O=C(O)c1ccc2c(C3CCCCC3)c3n(c2c1)CC(c1ccoc1)=Cc1ccccc1-3 [Example 45]; 1 to 500 nM

Challenge: IC50 for COC(=O)c1ccc2c(C3CCCCC3)c3n(c2c1)CC(c1ncc(CCC(=O)O)o1)=Cc1cc(OC)ccc1-3 [Example 47] ?
Response given: 1 to 500 nM

Challenge: Try this compound next: O=C(O)c1ccc2c(C3CCCCC3)c3n(c2c1)CC(c1nnn(CC2CCOCC2)n1)=Cc1ccccc1-3 [Example 11]
Response given: 1 to 500 nM

Challenge: Next compound: O=C(O)c1ccc2c(C3CCCCC3)c3n(c2c1)CC(c1nnnn1CC1CCCO1)=Cc1ccccc1-3 (stereo not drawn) [Example 10]
Response given: 1 to 500 nM

Challenge: Please give the result for O=C(O)c1ccc2c(C3CCCCC3)c3n(c2c1)CC(c1nn(CC2CCOCC2)c(=O)o1)=Cc1ccccc1-3 [Example 21] too.
Response given: 1 to 500 nM

Challenge: What do you get for COC(=O)c1ccc2c(C3CCCCC3)c3n(c2c1)CC(c1n[nH]c(CC2CCOCC2)n1)=Cc1ccccc1-3 [Example 40] ?
Response given: > 500 nM

Challenge: Input COC(=O)CCc1cnc(C2=Cc3cc(OC)ccc3-c3c(C4CCCCC4)c4ccc(C(=O)OC)cc4n3C2)o1 [Example 46]
Response given: > 500 nM

Challenge: Input O=C(O)c1ccc2c(C3CCCCC3)c3n(c2c1)CC(c1nnn(CCO)n1)=Cc1ccccc1-3 [Example 5]
Response given: > 500 nM

Challenge: Also, COC(=O)c1ccc2c(C3CCCCC3)c3n(c2c1)CC(c1nnn[nH]1)=Cc1ccccc1-3 [Example 1] please.
Response given: > 500 nM

Challenge: Can you check COc1ccc2c(c1)C=C(c1nnn(CC3CCOCC3)n1)Cn1c-2c(C2CCCCC2)c2ccc(C(=O)O)cc21 [Example 16] next?
Response given: 1 to 500 nM

Challenge: # iterate: Cn1nc(C2=Cc3ccccc3-c3c(C4CCCCC4)c4ccc(C(=O)O)cc4n3C2)nc1CC1CCOCC1 [Example 42]
Response given: > 500 nM
